Give measured pIC50 for each item. Keep answers brief.
TARGET_ENTITY: Mitogen-activated protein kinase 14 (Homo sapiens)
Sequence (Q16539 whole entry): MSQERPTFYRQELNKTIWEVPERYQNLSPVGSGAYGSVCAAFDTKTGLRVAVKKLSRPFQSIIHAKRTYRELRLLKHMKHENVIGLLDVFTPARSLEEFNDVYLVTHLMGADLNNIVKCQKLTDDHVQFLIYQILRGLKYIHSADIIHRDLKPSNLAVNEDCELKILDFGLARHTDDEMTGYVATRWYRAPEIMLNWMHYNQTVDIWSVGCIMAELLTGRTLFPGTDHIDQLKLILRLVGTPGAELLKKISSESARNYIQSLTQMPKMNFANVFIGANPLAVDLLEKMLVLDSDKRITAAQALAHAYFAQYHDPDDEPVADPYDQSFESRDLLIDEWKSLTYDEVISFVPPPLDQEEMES
EXPERIMENT_SUMMARY: Inhibition of p38alpha
pIC50: −log10 of the molar value.

{"columns": ["COMPOUND", "pIC50"],
 "data": [
  ["COc1ccc2[nH]c3c(c2c1)CCNC3C(=O)O (configuration not stated)", "< 4.00"]
]}

# input for lookup
Prompt line: Fill in the recorded pIC50 for this compound, with Mitogen-activated protein kinase 14 (Homo sapiens) as test system: COc1ccc2[nH]c3c(c2c1)C1CCN(C1)C3C(=O)O (configuration not stated)
Response line: < 4.00

---

TARGET_ENTITY: Ribosomal protein S6 kinase alpha-5 (Homo sapiens, UniProt O75582)
Sequence (O75582 whole entry): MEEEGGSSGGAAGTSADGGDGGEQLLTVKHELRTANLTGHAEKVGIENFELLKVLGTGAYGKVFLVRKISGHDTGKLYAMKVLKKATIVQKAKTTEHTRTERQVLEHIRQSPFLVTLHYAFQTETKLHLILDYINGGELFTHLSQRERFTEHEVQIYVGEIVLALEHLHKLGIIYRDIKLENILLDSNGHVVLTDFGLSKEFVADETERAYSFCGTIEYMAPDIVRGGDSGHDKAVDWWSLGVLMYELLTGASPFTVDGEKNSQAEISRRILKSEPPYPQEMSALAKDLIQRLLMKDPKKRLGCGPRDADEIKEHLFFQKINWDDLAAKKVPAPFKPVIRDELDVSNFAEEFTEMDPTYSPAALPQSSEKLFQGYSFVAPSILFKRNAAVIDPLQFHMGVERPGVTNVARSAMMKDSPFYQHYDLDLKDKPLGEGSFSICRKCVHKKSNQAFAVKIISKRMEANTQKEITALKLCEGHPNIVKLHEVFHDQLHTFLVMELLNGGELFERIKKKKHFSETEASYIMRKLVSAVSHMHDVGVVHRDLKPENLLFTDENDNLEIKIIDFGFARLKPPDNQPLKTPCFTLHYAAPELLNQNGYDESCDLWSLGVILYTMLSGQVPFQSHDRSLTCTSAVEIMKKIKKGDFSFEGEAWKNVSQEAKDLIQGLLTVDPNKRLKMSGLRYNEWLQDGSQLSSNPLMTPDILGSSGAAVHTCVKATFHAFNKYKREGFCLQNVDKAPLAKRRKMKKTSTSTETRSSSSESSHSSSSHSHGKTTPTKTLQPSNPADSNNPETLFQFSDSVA
pIC50: −log10 of the molar value.
PROPERTY_LABEL: pIC50

Prompt line: I would be grateful if you could share the reported pIC50 for COc1ccc2[nH]c3c(c2c1)CCNC3C(=O)O (stereo unspecified) .
Response line: < 3.70

---

Give measured pIC50 for each item. Keep answers brief.
TARGET_ENTITY: MAP kinase-activated protein kinase 2 (Homo sapiens)
Sequence (P49137 whole entry): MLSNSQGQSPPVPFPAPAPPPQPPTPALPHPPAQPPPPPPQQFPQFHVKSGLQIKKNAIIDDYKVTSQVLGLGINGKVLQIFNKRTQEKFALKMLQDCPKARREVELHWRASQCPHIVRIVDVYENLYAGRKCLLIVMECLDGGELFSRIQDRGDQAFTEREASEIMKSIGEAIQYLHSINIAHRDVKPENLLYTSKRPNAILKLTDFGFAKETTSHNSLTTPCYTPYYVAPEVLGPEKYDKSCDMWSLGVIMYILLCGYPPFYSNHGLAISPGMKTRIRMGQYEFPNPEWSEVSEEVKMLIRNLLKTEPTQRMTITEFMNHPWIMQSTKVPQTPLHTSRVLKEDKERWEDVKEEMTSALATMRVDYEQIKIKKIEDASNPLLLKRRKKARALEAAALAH
One number for each entry, as −log10 of the molar value.

{"columns": ["COMPOUND", "EXPERIMENTAL_RESULT"],
 "data": [
  ["COc1ccc2[nH]c3c(c2c1)CCNC3c1nnn[nH]1 (configuration not stated)", 3.89]
]}

# input for lookup
Prompt line: I would be grateful if you could share the reported pIC50 for CC(=O)Oc1ccc2[nH]c3c(c2c1)CCNC3C(=O)O (configuration not stated) .
Response line: 3.77

---

TARGET_ENTITY: MAP kinase-activated protein kinase 5 (Homo sapiens, UniProt Q8IW41)
Sequence (Q8IW41 whole entry): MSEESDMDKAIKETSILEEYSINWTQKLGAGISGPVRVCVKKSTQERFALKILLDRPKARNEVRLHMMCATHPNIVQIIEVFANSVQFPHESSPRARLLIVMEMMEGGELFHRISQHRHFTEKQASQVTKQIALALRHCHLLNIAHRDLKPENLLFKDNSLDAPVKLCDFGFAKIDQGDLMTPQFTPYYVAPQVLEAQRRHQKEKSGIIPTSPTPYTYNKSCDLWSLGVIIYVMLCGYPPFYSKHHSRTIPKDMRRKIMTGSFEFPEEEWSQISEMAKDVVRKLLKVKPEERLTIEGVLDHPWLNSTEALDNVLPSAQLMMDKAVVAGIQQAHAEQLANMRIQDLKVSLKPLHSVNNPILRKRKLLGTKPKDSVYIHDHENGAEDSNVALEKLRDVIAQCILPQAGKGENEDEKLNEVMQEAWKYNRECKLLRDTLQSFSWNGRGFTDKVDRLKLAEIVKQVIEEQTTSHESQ
EXPERIMENT_SUMMARY: Inhibition of PRAK
PROPERTY_LABEL: IC50 (µM)
Answers are plain numbers, in µM.

Dear colleague, could you send me IC50 for each of the items below? Thanks.
1. COc1ccc2[nH]c3c(c2c1)CCNC3C(=O)O (configuration not stated)
2. COc1ccc2[nH]c3c(c2c1)C1CCN(C1)C3C(=O)O (configuration not stated)

Response line:
1. 19
2. 24

---

TARGET_ENTITY: Mitogen-activated protein kinase 1 (Homo sapiens, UniProt P28482)
Sequence (P28482 whole entry): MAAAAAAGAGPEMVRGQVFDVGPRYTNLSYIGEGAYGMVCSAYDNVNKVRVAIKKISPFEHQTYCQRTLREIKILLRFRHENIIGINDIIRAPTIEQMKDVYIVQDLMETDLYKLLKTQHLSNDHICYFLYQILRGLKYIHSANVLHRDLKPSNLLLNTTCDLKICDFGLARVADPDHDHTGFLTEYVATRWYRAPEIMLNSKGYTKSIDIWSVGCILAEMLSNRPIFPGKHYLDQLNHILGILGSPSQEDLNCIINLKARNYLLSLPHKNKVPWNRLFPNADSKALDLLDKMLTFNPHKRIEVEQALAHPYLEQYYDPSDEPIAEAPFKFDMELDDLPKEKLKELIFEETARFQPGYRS
EXPERIMENT_SUMMARY: Inhibition of ERK2
PROPERTY_LABEL: IC50

Prompt line: I would be grateful if you could share the reported IC50 for COc1ccc2[nH]c3c(c2c1)CCNC3C(=O)O (stereo unspecified) .
Response line: > 100 µM

Where do these numbers come from? They come from ChEMBL document CHEMBL1140654.
